Target: T1, synthetic biotin-8xGA (also: biotin, position not given here)
T1 construct: also called synthetic 8×GA; poly-(GA)8 peptide
T1 peptide: GAGAGAGAGAGAGAGA
Assay: SPR (Biacore T200), biotin-8xGA captured on Biotin CAPture chip, Fab as analyte, 1:1 model
Ends that are not written are not given here.
For each entry below, report its Kd value.
# number then unit; no other words

{"columns": ["binder", "Kd"],
 "data": [
  ["NI-308.5J10 variant N54T-Fab-6His / N75D light chain (Fab, V domains shown, Plasmids SDD180 and SDD177; also called HC N54T/LC N75D Fab; 5J10-LC N75D, HC N54T Fab) VH: SETLSLTYTVLGGSVSDYYWSCIRQPAGKGLEWIGRTYTTGKTTYTYNPSLESRLSLSIDTSMNQFSLKLTSVTAADTAVYYCARWGAVTGDYYYGMDVWGPGTLVTVSS VL: EIVLTQSPLSLSVTPGEPASISCRSPRSLLHTNGYTYLDWYLQRPGQSPQLLIFLASNRASGVPDRFSGSGSGTDFTLRISGVEADDVGVYYCMQGLQPSWTFGQGTKVEIKR", "30 nM"],
  ["NI-308.5J10 variant WT-Fab-6His / N75D light chain (Fab, V domains shown, Plasmids SDD178 and SDD177; also called LC N75D Fab; 5J10-LC N75D Fab) VH: SETLSLTYTVLGGSVSDYYWSCIRQPAGKGLEWIGRTYTNGKTTYTYNPSLESRLSLSIDTSMNQFSLKLTSVTAADTAVYYCARWGAVTGDYYYGMDVWGPGTLVTVSS VL: EIVLTQSPLSLSVTPGEPASISCRSPRSLLHTNGYTYLDWYLQRPGQSPQLLIFLASNRASGVPDRFSGSGSGTDFTLRISGVEADDVGVYYCMQGLQPSWTFGQGTKVEIKR", "26 nM"]
]}

For each of the binders below, state Kd.
1. NI-308.5J10 variant G55S-Fab-6His / N75D light chain (Fab, V domains shown, Plasmids SDD181 and SDD177; also called HC G55S/LC N75D Fab; 5J10-LC N75D, HC G55S Fab) VH: SETLSLTYTVLGGSVSDYYWSCIRQPAGKGLEWIGRTYTNSKTTYTYNPSLESRLSLSIDTSMNQFSLKLTSVTAADTAVYYCARWGAVTGDYYYGMDVWGPGTLVTVSS VL: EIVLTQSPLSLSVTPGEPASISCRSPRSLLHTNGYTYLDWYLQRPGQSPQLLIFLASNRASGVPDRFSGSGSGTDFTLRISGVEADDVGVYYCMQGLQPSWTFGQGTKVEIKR
2. NI-308.5J10 WT Fab-6His (WT-Fab-6His / WT light chain) (Fab, V domains shown, The heavy chain is VH-CH1 with a C-terminal hexahistidine tag; also called 5J10 Fab) VH: SETLSLTYTVLGGSVSDYYWSCIRQPAGKGLEWIGRTYTNGKTTYTYNPSLESRLSLSIDTSMNQFSLKLTSVTAADTAVYYCARWGAVTGDYYYGMDVWGPGTLVTVSS VL: EIVLTQSPLSLSVTPGEPASISCRSPRSLLHTNGYTYLDWYLQRPGQSPQLLIFLASNRASGVPDRFSGSGSGTNFTLRISGVEADDVGVYYCMQGLQPSWTFGQGTKVEIKR
3. NI-308.5J10 variant G55T-Fab-6His / N75D light chain (Fab, V domains shown, Plasmids SDD182 and SDD177; also called HC G55T/LC N75D Fab; 5J10-LC N75D, HC G55T Fab) VH: SETLSLTYTVLGGSVSDYYWSCIRQPAGKGLEWIGRTYTNTKTTYTYNPSLESRLSLSIDTSMNQFSLKLTSVTAADTAVYYCARWGAVTGDYYYGMDVWGPGTLVTVSS VL: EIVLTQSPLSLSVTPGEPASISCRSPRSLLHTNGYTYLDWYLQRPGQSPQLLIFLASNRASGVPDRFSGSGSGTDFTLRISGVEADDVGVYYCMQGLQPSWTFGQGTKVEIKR
4. NI-308.5J10 variant N54S-Fab-6His / N75D light chain (Fab, V domains shown, Plasmids SDD179 and SDD177; also called HC N54S/LC N75D Fab; 5J10-LC N75D, HC N54S Fab) VH: SETLSLTYTVLGGSVSDYYWSCIRQPAGKGLEWIGRTYTSGKTTYTYNPSLESRLSLSIDTSMNQFSLKLTSVTAADTAVYYCARWGAVTGDYYYGMDVWGPGTLVTVSS VL: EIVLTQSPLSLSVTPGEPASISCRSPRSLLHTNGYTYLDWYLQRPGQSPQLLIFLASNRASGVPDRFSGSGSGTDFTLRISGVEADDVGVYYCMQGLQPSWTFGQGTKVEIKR

24 nM
28 nM
22 nM
21 nM
